The reported measurements were obtained from paper PMC12177912.

# measured_on: tRNA-2-selenouridine synthase (SelU, MnmH) (Escherichia coli, UniProt Q0TKD8)
# Sequence (Q0TKD8 1-172): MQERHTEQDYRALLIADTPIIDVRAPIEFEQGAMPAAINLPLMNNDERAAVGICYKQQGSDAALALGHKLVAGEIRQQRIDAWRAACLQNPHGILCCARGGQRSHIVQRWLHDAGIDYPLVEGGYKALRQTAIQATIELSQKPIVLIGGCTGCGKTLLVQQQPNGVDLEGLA
pKd: −log10 of the molar value.
reported_endpoint: pKd

>>> observed_value("CC(C)=CCC/C(C)=C/COC[C@H]1O[C@@H](n2ccc(=O)[nH]c2=O)[C@H](O)[C@@H]1O")
4.52
